All values here come from patent US20050137220A1.

# subject of test: MK-2 (Homo sapiens)
# assay remarks: Determination of MK-2 IC50 (phosphorylation of HSP-peptide, anion exchange resin capture assay)
# Assay type: biochemical
# study conditions: additional values are replicate IC50 experiments; mixture of stereoisomers implied unless otherwise noted; read-out: MK-2 Avg. IC50
Where a name gives a salt, the structure may show the parent alone.
measured metric: log10 of IC50 (log10 of the value in µM)
Please keep in mind that the values are log10 of IC50 expressed in µM.

COC(=O)c1cccc2[nH]c3c(c12)CCNC3C(=O)O (stereo not drawn) [Example 142, hydrochloride hydrate] yielded log10 of IC50 of 2.08

CCOC(=O)c1ccc2c3c([nH]c2c1)CCNC3=O [Example 110] yielded log10 of IC50 of 1.70

COc1ccc2[nH]c3c(c2c1)CCN(Cc1ccc(C(F)(F)F)cc1)C3C(=O)O (stereo not drawn) [Example 141] yielded log10 of IC50 of 2.08

O=C(O)C1NCCc2c1[nH]c1ccc(OCc3cccc(Cl)c3)cc21 (stereo not drawn) [Example 80] yielded log10 of IC50 of 1.25

COc1ccc2[nH]c3c(c2c1)CC(CCCN)NC3=O (stereo not drawn) [Example 38, trifluoroacetate] yielded log10 of IC50 of 0.74

COC(=O)CCC1Cc2c([nH]c3ccc(OC)cc23)C(=O)N1 (stereo not drawn) [Example 147] yielded log10 of IC50 of 2.13

O=C(O)C1NCCc2c1[nH]c1ccc(OCc3ccccc3Cl)cc21 (stereo not drawn) [Example 72, trifluoroacetate] yielded log10 of IC50 of 1.19

O=C(O)COc1ccc2[nH]c3c(c2c1)CCNC3C(=O)O (stereo not drawn) [Example 98] yielded log10 of IC50 of 1.55

CS(=O)(=O)c1ccc(COc2ccc3[nH]c4c(c3c2)CCNC4C(=O)O)cc1 (stereo not drawn) [Example 104, hydrochloride] yielded log10 of IC50 of 1.65

O=C1NCCc2c1[nH]c1ccc(I)cc21 [Example 120] yielded log10 of IC50 of 1.88

CCOC(=O)COc1ccc2[nH]c3c(c2c1)CCNC3C(=O)O (stereo not drawn) [Example 53, trifluoroacetate hydrate] yielded log10 of IC50 of 0.90

---

# subject of test: MK-2 (Homo sapiens, UniProt P49137)
# Sequence (P49137 whole entry, species assumed): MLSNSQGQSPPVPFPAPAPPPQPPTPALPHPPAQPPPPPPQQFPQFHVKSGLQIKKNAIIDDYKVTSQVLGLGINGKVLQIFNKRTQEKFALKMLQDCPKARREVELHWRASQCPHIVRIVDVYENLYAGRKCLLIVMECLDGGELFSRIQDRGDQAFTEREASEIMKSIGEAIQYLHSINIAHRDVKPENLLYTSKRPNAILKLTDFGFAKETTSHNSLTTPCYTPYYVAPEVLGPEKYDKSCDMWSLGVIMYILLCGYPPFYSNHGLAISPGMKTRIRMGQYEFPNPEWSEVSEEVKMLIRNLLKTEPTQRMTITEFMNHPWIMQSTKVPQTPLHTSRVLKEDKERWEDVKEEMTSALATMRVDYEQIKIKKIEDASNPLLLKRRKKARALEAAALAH
# assay remarks: Determination of MK-2 IC50 (phosphorylation of HSP-peptide, anion exchange resin capture assay)
# Assay type: biochemical
# study conditions: additional values are replicate IC50 experiments; mixture of stereoisomers implied unless otherwise noted; read-out: MK-2 Avg. IC50
Counter-ions that a name gives are not always drawn.
measured metric: IC50

CCOC(=O)CCCOc1ccc2[nH]c3c(c2c1)CCNC3C(=O)O (centres unmarked) [Example 130, hydrochloride] yielded IC50 of 100 µM

COc1ccc2[nH]c3c(c2c1)CCNC3Cc1nnn[nH]1 (centres unmarked) [Example 166, hydrochloride hydrate] yielded IC50 of > 200 µM

COc1ccc2[nH]c3c(c2c1)CCN(C(=O)OCc1ccccc1)C3C(=O)NCC(=O)OCc1ccccc1 (centres unmarked) yielded IC50 of > 200 µM

COc1ccc2[nH]c3c(c2c1)CCN1COC(=O)C31 (centres unmarked) yielded IC50 of > 200 µM

COC(=O)C1c2c(c3cc(OC)ccc3n2CO)CCN1C (centres unmarked) yielded IC50 of > 200 µM

COc1ccc2[nH]c3c(c2c1)CCC/C3=N\O (single isomer, unassigned) [Example 75] yielded IC50 of 16.5 µM

COc1ccc2c3c([nH]c2c1)C(C(=O)O)NCC3 (centres unmarked) [Example 217, hydrochloride] yielded IC50 of > 200 µM

COC(=O)C1(C)NCCc2c1[nH]c1ccccc21 (centres unmarked) [Example 212] yielded IC50 of > 200 µM

---

# subject of test: MK-2 (Homo sapiens, UniProt P49137)
# assay remarks: Determination of MK-2 IC50 (phosphorylation of HSP-peptide, anion exchange resin capture assay)
# Assay type: biochemical
# study conditions: additional values are replicate IC50 experiments; mixture of stereoisomers implied unless otherwise noted; read-out: MK-2 Avg. IC50
Where a name gives a salt, the structure may show the parent alone.
measured metric: IC50

O=C(O)C1c2[nH]c3ccccc3c2CCN1C(=O)c1ccc(Cl)cc1 (centres unmarked) yielded IC50 of > 200 µM

COc1ccc2[nH]c3c(c2c1)CCNC3C(=O)NCC(=O)O (centres unmarked) [Example 229, hydrochloride hydrate] yielded IC50 of > 200 µM

O=C1NCCc2c1[nH]c1c(Cl)cccc21 yielded IC50 of > 200 µM

Cc1ccc2[nH]c3c(c2c1)CCNC3C(=O)O (centres unmarked) [Example 216, hydrochloride] yielded IC50 of > 200 µM

CC(C)(C)OC(=O)N1CCN(C(=O)c2cccc3[nH]c4c(c23)CCNC4=O)CC1 yielded IC50 of > 200 µM

COC(=O)c1cccc2c3c([nH]c12)CCNC3=O yielded IC50 of 3.52 µM

O=C1NCCc2c1[nH]c1ccccc21 yielded IC50 of > 200 µM

COc1ccc2[nH]c3c(c2c1)CCNC3C(=O)NN (centres unmarked) yielded IC50 of > 200 µM

O=C1NCCc2c1[nH]c1ccc(Cl)cc21 yielded IC50 of 89.6 µM

COC(=O)C1NC(CO)Cc2c1[nH]c1ccc(OC)cc21 (centres unmarked) yielded IC50 of > 200 µM

O/N=C1\CCCc2c1[nH]c1ccccc21 yielded IC50 of 49.9 µM

COc1ccc2[nH]c3c(c2c1)CC(CCCO)NC3=O (centres unmarked) yielded IC50 of 20.4 µM

COC(=O)c1cccc2[nH]c3c(c12)CCNC3C(=O)O (centres unmarked) [Example 238, hydrate] yielded IC50 of > 200 µM

COc1ccc2[nH]c3c(c2c1)C(C(F)(F)F)CNC3C(=O)O (centres unmarked) yielded IC50 of 13.8 µM

COc1ccc2[nH]c3c(c2c1)CCNC3CO (centres unmarked) yielded IC50 of > 200 µM

CN1CCc2c(n(-c3ccccc3)c3ccccc23)C1=O yielded IC50 of > 200 µM

O=C1NCCc2c1[nH]c1cccc(C(=O)N3CCNCC3)c21 [Example 268, hydrochloride] yielded IC50 of > 200 µM

CCOC(=O)C1c2[nH]c3ccccc3c2CCN1C(=O)c1ccc(OC)o1 (centres unmarked) yielded IC50 of > 200 µM

COC(=O)c1cccc2c3c([nH]c12)CCCC3=O yielded IC50 of 39.8 µM

COc1ccc2[nH]c3c(c2c1)C1CCCCC1NC3C(=O)O (centres unmarked) yielded IC50 of > 200 µM

---

# subject of test: MK-2 (Homo sapiens, UniProt P49137)
# assay remarks: Determination of MK-2 IC50 (phosphorylation of HSP-peptide, anion exchange resin capture assay)
# Format: biochemical
# study conditions: additional values are replicate IC50 experiments; mixture of stereoisomers implied unless otherwise noted; read-out: MK-2 Avg. IC50
pIC50: −log10 of the molar value. Where a name gives a salt, the structure may show the parent alone.
measured metric: pIC50

O=C(O)C1NCCc2c1[nH]c1cc(F)ccc21 (stereo not drawn) [Example 214, hydrochloride] yielded pIC50 of < 3.70

COc1ccc2[nH]c3c(c2c1)C(Cc1ccc(OC(F)(F)F)cc1)CNC3C(=O)O (stereo not drawn) [Example 185] yielded pIC50 of < 3.70

COC(=O)c1ccc(COc2ccc3[nH]c4c(c3c2)CCNC4C(=O)O)cc1 (stereo not drawn) [Example 119, hydrochloride] yielded pIC50 of 4.14

CCOC(=O)C1(C(=O)OCC)NCCc2c1[nH]c1ccc(OC)cc21 [Example 171] yielded pIC50 of < 3.70

COc1cc2[nH]c3c(c2cc1OC)CCNC3C(=O)O (stereo not drawn) [Example 201, trifluoroacetate] yielded pIC50 of < 3.70

COc1ccc2[nH]c3c(c2c1)CCN1CC(C)NC(=O)C31 (stereo not drawn) [Example 206] yielded pIC50 of < 3.70

COc1ccc2[nH]c3c(c2c1)C(C)(C)CNC3C(=O)O (stereo not drawn) [Example 73] yielded pIC50 of 4.80

O=C(O)C1NCCc2c1[nH]c1ccc(Br)cc21 (stereo not drawn) [Example 89, hydrochloride] yielded pIC50 of 4.55

COc1ccc2[nH]c3c(=O)n(/N=C/c4ccccc4)c(=O)[nH]c3c2c1 [Example 265] yielded pIC50 of < 3.70

---

# subject of test: MK-2 (Homo sapiens)
# assay remarks: Determination of MK-2 IC50 (phosphorylation of HSP-peptide, anion exchange resin capture assay)
# Assay type: biochemical
# study conditions: MK-2 Avg. IC50, additional values are replicate IC50 experiments; mixture of stereoisomers implied unless otherwise noted
measured metric: IC50 (µM)
Number in µM, nothing else.

COc1ccc2[nH]c3c(c2c1)CCNC3=S yielded IC50 of 34.8

---

Provide the recorded pIC50 for the entries that follow.
# Test system: U937 cells
# assay remarks: U937 Cell TNFα Release Assay
# Assay type: cell-based, human
# study conditions: read-out: TNF Release Assay Avg. IC50; LPS-stimulated differentiated U937 cells, TNFα by ELISA; mixture of stereoisomers implied unless otherwise noted; hydrochloride
Structures can show the parent of a compound that is named as a salt.
Note: pIC50 values are expressed as the negative base-10 logarithm of concentration in M.

Given the molecule CCCOC(=O)C1c2[nH]c3ccc(OC)cc3c2C2CCN1C2 (centres unmarked) [Example 90, hydrochloride] and test system U937 cells, the measured pIC50 is 4.32

Given the molecule COCCOC(=O)C1c2[nH]c3ccc(OC)cc3c2C2CCN1C2 (centres unmarked) [Example 35, hydrochloride] and test system U937 cells, the measured pIC50 is 4.03
